- test target: GABA transporter 3 (Mus musculus, UniProt P31649)
- Sequence (P31649 whole entry): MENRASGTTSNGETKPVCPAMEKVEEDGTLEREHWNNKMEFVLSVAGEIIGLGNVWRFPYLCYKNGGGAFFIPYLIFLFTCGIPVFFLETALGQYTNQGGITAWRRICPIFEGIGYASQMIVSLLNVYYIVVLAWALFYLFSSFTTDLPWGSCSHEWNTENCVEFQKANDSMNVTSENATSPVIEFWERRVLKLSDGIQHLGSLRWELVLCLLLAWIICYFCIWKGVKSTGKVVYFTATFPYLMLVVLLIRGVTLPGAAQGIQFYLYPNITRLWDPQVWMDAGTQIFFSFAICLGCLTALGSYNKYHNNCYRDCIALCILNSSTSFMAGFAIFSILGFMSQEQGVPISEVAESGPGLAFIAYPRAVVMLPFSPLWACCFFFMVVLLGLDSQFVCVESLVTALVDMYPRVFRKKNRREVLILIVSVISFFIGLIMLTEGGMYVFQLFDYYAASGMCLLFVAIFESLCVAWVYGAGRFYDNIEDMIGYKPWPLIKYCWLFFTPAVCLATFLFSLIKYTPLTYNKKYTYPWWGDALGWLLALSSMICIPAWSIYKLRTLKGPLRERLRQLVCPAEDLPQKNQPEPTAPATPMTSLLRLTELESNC
- experiment description: Inhibition of [3H]GABA uptake at mouse GAT3 expressed in HEK293 cells after 3 mins by scintillation counting analysis
- Type: cell-based
- condition summary: read-out: IC50
pIC50: −log10 of the molar value.
readout label: pIC50

Below: 3 compounds and their reported pIC50.
* CN[C@H]1CCCC[C@H]1C(=O)O (relative stereo) | < 2.52
* Cc1ccsc1C(=CCCN(C)[C@H]1CCCC[C@@H]1C(=O)O)c1sccc1C (relative stereo) | < 3.52
* CNC1CCCC=C1C(=O)O (configuration not stated) | < 3.00

Give the reported pIC50 for Cc1ccsc1C(=CCCN(C)C1CCC=C1C(=O)O)c1sccc1C (configuration not stated) (system: GABA transporter 3 (Mus musculus, UniProt P31649)).
< 3.52

Give the reported pIC50 for Cc1ccsc1C(=CCCN1CCC[C@@H](C(=O)O)C1)c1sccc1C (system: GABA transporter 3 (Mus musculus, UniProt P31649)).
< 3.52

Give the reported pIC50 for Cc1ccsc1C(=CCCN(C)[C@@H]1CCCC[C@@H]1C(=O)O)c1sccc1C (relative stereo) (system: GABA transporter 3 (Mus musculus, UniProt P31649)).
3.55

Give the reported pIC50 for CNC1CCCc2onc(O)c21 (configuration not stated) (system: GABA transporter 3 (Mus musculus, UniProt P31649)).
< 2.52

Give the reported pIC50 for CN[C@@H]1CCCC[C@H]1C(=O)O (relative stereo) (system: GABA transporter 3 (Mus musculus, UniProt P31649)).
< 2.52

Give the reported pIC50 for Cc1ccsc1C(=CCCN(C)C1CCCc2o[nH]c(=O)c21)c1sccc1C (configuration not stated) (system: GABA transporter 3 (Mus musculus, UniProt P31649)).
< 3.52

Give the reported pIC50 for CNC1C2C=CC(C2)C1C(=O)O (configuration not stated) (system: GABA transporter 3 (Mus musculus, UniProt P31649)).
< 3.30

Give the reported pIC50 for Cc1ccsc1C(=CCCN(C)C1CCCC=C1C(=O)O)c1sccc1C (configuration not stated) (system: GABA transporter 3 (Mus musculus, UniProt P31649)).
< 3.52

Give the reported pIC50 for Cc1ccsc1C(=CCCN(C)C1C2C=CC(C2)C1C(=O)O)c1sccc1C (configuration not stated) (system: GABA transporter 3 (Mus musculus, UniProt P31649)).
< 3.52

All figures here come from ChEMBL document CHEMBL2321777.
